Where do these numbers come from? They come from patent US9833497B2.

Give MIC for every item shown.
Tested on: E. coli DH5α
Test: Antibacterial activity: MIC and growth curve against E. coli DH5α in 96-well plate
Type: cell-based
Conditions: minimal inhibitory concentration against E. coli DH5α; 96-well plate, 5×10^5 CFU/mL, 37° C., judged after 8 h
Answers are plain numbers, in µg/mL.

Solved cases (3 shown):
SUBSTANCE	MIC, µg/mL
PRT1226 (YTASCQDMSCSKQGECLETIGNYTCSCYPGFYGPECE; listed as Homo sapiens)	25
PRT599 (CECDPDGTISGGICVSHSDPALGSVAGQCLCKENVEGAKCDQCKPNHYGLSATDPLGCQP; listed as Homo sapiens)	12.5
PRT447 (DVDECAQALHDRRPSQDCHNLSGSYQCTCPDGYRKIGPE; listed as Homo sapiens)	50

Hey, quick one: what's MIC for each of these?
1. PRT637 (DIDECVNNTVCDSHGFCDNTAGSFRCLCYQGFQAPQDG; listed as Homo sapiens)
2. PRT115 (SRNPCSSSPCRGGATCVLGPHGKNYTCRCPQGYQLDSSQLDCV; listed as Homo sapiens)
3. PRT1183 (NIDDCLGQPCRNGGTCIDEVDAFRCFCPSGWEGELCD; listed as Homo sapiens)
4. PRT415 (DINECLSISAPCPIGHTCINTEGSYTCQKNVPNCGRGYHLNEEGTRCV; listed as Homo sapiens)

1: 25; 2: 12.5; 3: 25; 4: 25

----------
Test system: Pseudomonas aeruginosa
Experiment: MIC against Gram-negative bacteria: Pseudomonas aeruginosa
Assay type: cell-based
Conditions: P. aeruginosa; 10 h cultivation at 37° C.; 5×10^5 CFU/mL
Give MIC (μg/mL) P. aeruginosa for every item shown.
Give bare numbers, in µg/mL.

Solved cases (3 shown):
SUBSTANCE	UNIT_DESCRIPTOR	VAL
PRT209 (DVDECAQALHDCRPSQDCHNLPGSYQCTCPDGYR; listed as Homo sapiens)	µg/mL	12.5
PRT874 (CNCNQIGSVHDRCNETGFCECREGAAGPKCDDCLPTHYWRQGCYP; listed as Homo sapiens)	µg/mL	12.5
PRT181 (RADPCAARPCAHGGRCYAHFSGLVCACAPGYMGARCE; listed as Homo sapiens)	µg/mL	25

May I ask what MIC (μg/mL) P. aeruginosa has been recorded for PRT229 (DINECLTSSVCPEHSDCVNSMGSYSCSCQVGFISRNSTCE; listed as Homo sapiens) ?
12.5

----------
Give MIC A. hydrophila for every item shown.
Test system: Aeromonas hydrophila
Assay: MIC against Gram-negative bacteria: Aeromonas hydrophila
Type: cell-based
Details: 10 h cultivation at 37° C., 5×10^5 CFU/mL, two-fold serial dilution
One number for each entry, in µg/mL.

Solved cases (7 shown):
SUBSTANCE	TARGET_OF_ASSAY	UNIT_DESCRIPTOR	MIC A. hydrophila
PRT1087 (HEEPCGPSHKSFCLNGGLCYVIPTIPSPFCRCVENYTGARCE; listed as Homo sapiens)	Aeromonas hydrophila	µg/mL	12.5
PRT1057 (DIDECEMGVPVCPPASSKCINTEGGYVCRCSEGYQGDGIHCL; listed as Homo sapiens)	Aeromonas hydrophila	µg/mL	50
PRT1122 (DVDECLSDPCLHGGTCSDTVAGYICRCPETWGGRDCS; listed as Homo sapiens)	Aeromonas hydrophila	µg/mL	25
PRT1113 (HVDPCHSAPCARGRCHTHPDGRFECRCPPGFGGPRCR; listed as Homo sapiens)	Aeromonas hydrophila	µg/mL	12.5
PRT1071 (ELDQCWEHCRNGGTCAASPSGMPTCRCPTGFTGPKCT; listed as Homo sapiens)	Aeromonas hydrophila	µg/mL	25
PRT1062 (LQGNCSRLGCQHHCVPTLDGPTCYCNSSFQLQADGKTCK; listed as Homo sapiens)	Aeromonas hydrophila	µg/mL	25
PRT1083 (GTNVCAVANGGCQQLCLYRGRGQRACACAHGMLAEDGASCR; listed as Homo sapiens)	Aeromonas hydrophila	µg/mL	25

Field: next substance
Request body: readout MIC A. hydrophila, system Aeromonas hydrophila, query PRT1063 (ELSPCRINNGGCQDLCLLTHQGHVNCSCRGGRILQDDLTCR; listed as Homo sapiens) . Return the value.
50

----------
Give MIC K. pneumonia for every item shown.
System: Klebsiella pneumonia
Test: MIC against Gram-negative bacteria: Klebsiella pneumonia
Format: cell-based
Settings: 10 h cultivation at 37° C., 5×10^5 CFU/mL, two-fold serial dilution
Give bare numbers, in µg/mL.

SUBSTANCE	VAL
PRT1152 (HASPCSLMKCGNGGTCIESGTSVYCNCTTGWKGSFCT; listed as Homo sapiens)	25
PRT1119 (EVLECASAPCEHNASCLEGLGSFRCLCWPGYSGELCE; listed as Homo sapiens)	25
PRT1085 (HARKCNETAKSYCVNGGVCYYIEGINQLSCKCPNGFFGQRCL; listed as Homo sapiens)	50

May I ask what MIC K. pneumonia has been recorded for PRT1068 (DINECLRFGTCSQLCNNTKGGHLCSCARNFMKTHNTCK; listed as Homo sapiens) ?
12.5

----------
System: Klebsiella pneumonia
Experiment: MIC against Gram-negative bacteria: Klebsiella pneumonia
Type: cell-based
Settings: 96-well plate, 5×10^5 CFU/mL, 37° C., 10 h
Method: 1. Gram-negative bacteria, such as E. coli BL21, Pseudomonas aeruginosa, Klebsiella pneumonia, Enterobacter cloacae, Aeromonas hydrophila, Citrobacter diversus, Moraxella catarrhalis, Proteus mirabilis, Proteus vulgaris, Serratia marcescens, etc were streaked on solid LB medium and cultured respectively. Then, typical clones were picked, inoculated into common liquid LB medium respectively, and cultured at 37° C. with shaking at 185 rpm until the McFarland specific turbidity was 0.5. […]
READOUT: MIC K. pneumonia (µg/mL)
Answers are plain numbers, in µg/mL.

Solved cases (2 shown):
SUBSTANCE	READOUT	UNIT_DESCRIPTOR	VAL
PRT641 (QAEECGILNGCENGRCVRVQEGYTCDCFDGYHLDTAK; listed as Homo sapiens)	MIC K. pneumonia	µg/mL	25
PRT616 (CDCNGKSRQCIFDRELHRQTGNGFRCLNCNDNTDGIHCEKCKNGFYRHRERDRCLP; listed as Homo sapiens)	MIC K. pneumonia	µg/mL	50

Field: next substance
May I ask what MIC K. pneumonia has been recorded for PRT603 (CHCHPQGSKDTVCDQVTGQCPCHGEVSGRRCDRCLAGYFGFPSCHP; listed as Homo sapiens) ?
12.5

----------
Test system: Aeromonas hydrophila
Experiment: MIC against Gram-negative bacteria: Aeromonas hydrophila
Assay type: cell-based
Conditions: 96-well plate, 5×10^5 CFU/mL, 37° C., 10 h
Procedure: 1. Gram-negative bacteria, such as E. coli BL21, Pseudomonas aeruginosa, Klebsiella pneumonia, Enterobacter cloacae, Aeromonas hydrophila, Citrobacter diversus, Moraxella catarrhalis, Proteus mirabilis, Proteus vulgaris, Serratia marcescens, etc were streaked on solid LB medium and cultured respectively. Then, typical clones were picked, inoculated into common liquid LB medium respectively, and cultured at 37° C. with shaking at 185 rpm until the McFarland specific turbidity was 0.5. […]
Give MIC against A. hydrophila for every item shown.
Give bare numbers, in µg/mL.

Solved cases (6 shown):
SUBSTANCE	UNIT_DESCRIPTOR	VAL
PRT446 (DVDECVGLQPVCPQGTTCINTGGSFQCVSPECPEGSGNVSYVKTSPFQCE; listed as Homo sapiens)	µg/mL	50
PRT554 (CNCESDFTDGTCEDLTGRCYCRPNFSGERCDVCAEGFTGFPSCYPT; listed as Homo sapiens)	µg/mL	12.5
PRT590 (CDCNILGSRRDMPCDEESGRCLCLPNVVGPKCDQCAPYHWKLASGQGCEP; listed as Homo sapiens)	µg/mL	25
PRT515 (CHCDPIGSLNEVCVKDEKHARRGLAPGSCHCKTGFGGVSCDRCARGYTGYPDCKA; listed as Homo sapiens)	µg/mL	50
PRT567 (CTCDPAGSQNEGICDSYTDFSTGLIAGQCRCKLNVEGEHCDVCKEGFYDLSSEDPFGCKS; listed as Homo sapiens)	µg/mL	25
PRT556 (CQCSSPGVADDRCDPDTGQCRCRVGFEGATCDRCAPGYFHFPLCQL; listed as Homo sapiens)	µg/mL	50

Field: next substance
May I ask what MIC against A. hydrophila has been recorded for PRT537 (CDCNGNSNECLDGSGYCVHCQRNTTGEHCEKCLDGYIGDSIRGAPQFCQP; listed as Homo sapiens) ?
25

----------
System: Proteus mirabilis
Assay: MIC against Gram-negative bacteria: Proteus mirabilis
Assay type: cell-based
Conditions: Proteus mirabilis; 96-well plate, 5×10^5 CFU/mL, 37° C., 10 h
Give MIC against P. mirabilis for every item shown.
Answers are plain numbers, in µg/mL.

Solved cases (7 shown):
SUBSTANCE	VAL
PRT1218 (DINECEREECENGGSCVNVFGSFLCNCTPGYVGQYCG; listed as Homo sapiens)	12.5
PRT1216 (YPDACKRSPCQHGGSCTGLPSGGYQCTCLSQFTGRNCE; listed as Homo sapiens)	50
PRT1232 (IGQQCPNMCSGHGSCDHGICRCDQGYQGTECH; listed as Homo sapiens)	25
PRT1331 (EIDPCADGLNGGCHEHATCKMTGPGKHKCECKSHYVGDGLNCE; listed as Homo sapiens)	25
PRT1323 (DCIECPGGAGSPCNGRGSCAEGMEGNGTCSCQEGFGGTACE; listed as Homo sapiens)	25
PRT1215 (SNDPCVEKPCPGDMQCVSYEASRRPFLCQCPPGKLGECS; listed as Homo sapiens)	25
PRT1296 (GCEPCHKKVCAHGTCQPSSQAGFTCECQEGWMGPLCD; listed as Homo sapiens)	25

Field: next substance
May I ask what MIC against P. mirabilis has been recorded for PRT1328 (LINVCLTKNGGCSEFAICNHTGQVERTCTCKPNYIGDGFT; listed as Homo sapiens) ?
50
